Measured IC50 values are reported for all entries that follow.
Test system: IL-2-FL/Gaussia Luciferase
Assay: Dox Induced IL2-FL-Gluc Assay
Assay type: cell-based
Conditions: 24 hr doxycycline induction, 293FRT/TO cells, Gaussia luciferase signal; read-out: 24 hr Dox Inducible IL2FLGIuc 293FRT/TO: Mean IC50
Provide the reading as a plain figure in nM.

Answered examples (2):
O=C(Nc1nc(C2CCN(c3ccccc3)CC2)cs1)c1cccn1Cc1ccncc1    1500
O=C(Nc1nc(C2Cc3ccccc3C2)cs1)c1cccn1CCCc1ccncc1    2320

Prompt: # input molecule: `Cc1ccc(C(=O)Nc2nc(C(C)(C)OC(C)C)cs2)n1Cc1ccncc1` ; wanted: its IC50
Response: 3990
